- measurementNotes: NCI Yeast Anticancer Drug Screen. Data for the sgs1 mgt1 strain (AID 161)
- experimentalContext: S. cerevisiae sgs1 mgt1 strain, at 50.0 µM
About 79,000 compounds went through this panel and 15% of them were active in at least one assay; those are over-represented in the sample as a whole. Activity calls are given as the source filed them. Cut-off read from the data, not from the text of the source: active = growth inhibition above about 70%; inactive = the rest.
Permitted responses: active, inactive

compound: Cc1cc(C2(O)CCCc3ccccc32)[n+]([O-])cc1C (stereo not given)
cat: inactive

Lookup: Check the results log: what was the call for BrC1CC1(c1ccccc1)c1ccccc1 (stereo not given) ?
Found: inactive

Lookup: Let us now turn to CC(=O)c1ccc(OC(=O)Nc2ccc(C)cc2)cc1
Found: inactive

Lookup: Let us now turn to Cc1c(N)nc(C(CC(N)=O)NCC(N)C(N)=O)nc1C(=O)NC(C(=O)NC(C)C(O)C(C)C(=O)NC(C(=O)NCCc1nc(-c2nc(C(=O)NCCC[S+](C)CC(N)=O)cs2)cs1)C(C)O)C(OC1OC(CO)C(O)C(O)C1OC1OC(CO)C(O)C(OC(N)=O)C1O)c1cnc[nH]1 (stereo not given)
Found: active

Lookup: Let us now turn to CCOC(=O)c1cnc(C)nc1Nc1ccccc1
Found: inactive

Lookup: Let us now turn to CN(C)c1ccc(C(Cc2ccccc2)C2NC(=S)NC2=O)cc1 (stereo not given)
Found: inactive

Lookup: Let us now turn to O=C(O)Cc1ccc(-c2ccccc2)[nH]1
Found: inactive

Lookup: Let us now turn to Cn1cnc([N+](=O)[O-])c1Sc1nnc(C(F)(F)F)n1C
Found: inactive
